Please provide measured melting point for the entries that follow.

Can you look up the measured melting point of `O=C(Cn1cnc2onc(-c3ccc(F)cc3)c2c1=O)Nc1ccc(C(F)(F)F)cc1` for me?
225 to 227 °C

And `COc1ccc(-c2noc3ncn(CC(=O)N4CCCc5ccccc54)c(=O)c23)cc1` ?
171 to 178 °C

And `O=C(Cn1cnc2onc(-c3cccs3)c2c1=O)N1CCCc2ccccc21` ?
202 to 205 °C

And `O=C(Cn1cnc2onc(-c3ccc(F)cc3)c2c1=O)Nc1ccc([N+](=O)[O-])cc1` ?
200 to 203 °C

And `O=C(Cn1cnc2onc(-c3ccc(F)cc3)c2c1=O)Nc1ccccc1` ?
203 to 205 °C

And `O=C(Cn1cnc2onc(-c3ccc(F)cc3)c2c1=O)Nc1ccc(-c2ncco2)cc1` ?
237 to 239 °C

And `COC(=O)c1ccc(NC(=O)Cn2cnc3onc(-c4ccc(F)cc4)c3c2=O)cc1` ?
234 to 236 °C

And `N#Cc1ccc(NC(=O)Cn2cnc3onc(-c4ccc(F)cc4)c3c2=O)cc1` ?
> 250 °C

And `COC(=O)c1ccc(NC(=O)Cn2cnc3onc(-c4ccccc4)c3c2=O)cc1` ?
200 to 202 °C

And `COC(=O)c1ccccc1NC(=O)Cn1cnc2onc(-c3ccc(F)cc3)c2c1=O` ?
212 to 214 °C

And `CN(C)C(=O)Cn1cnc2onc(-c3ccc(F)cc3)c2c1=O` ?
215 to 217 °C

And `O=C(Cn1cnc2onc(-c3ccccc3)c2c1=O)Nc1ccc([N+](=O)[O-])cc1` ?
197 to 199 °C

---

Please provide measured inhibition at 100 µM for the entries that follow.
- test system: IDO1 (Homo sapiens)
- Sequence (P14902 6-403): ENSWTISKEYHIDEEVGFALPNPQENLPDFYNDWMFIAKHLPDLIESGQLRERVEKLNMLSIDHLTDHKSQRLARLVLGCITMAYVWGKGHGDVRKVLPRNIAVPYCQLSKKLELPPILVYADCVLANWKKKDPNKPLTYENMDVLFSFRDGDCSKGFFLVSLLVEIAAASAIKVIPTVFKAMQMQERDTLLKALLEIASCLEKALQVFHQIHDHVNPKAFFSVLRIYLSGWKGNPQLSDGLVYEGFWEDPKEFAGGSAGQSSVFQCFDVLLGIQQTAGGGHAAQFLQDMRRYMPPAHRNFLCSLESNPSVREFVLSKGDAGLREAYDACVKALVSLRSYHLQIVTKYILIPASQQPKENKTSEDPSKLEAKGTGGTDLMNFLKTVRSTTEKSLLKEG
- run description: hIDO1 inhibitory potency evaluation (fluorescence assay, NFK-derived fluorophore)
- Type: biochemical
- Design: gene encoding human IDO1 residues 6-403 His-tagged at the N-terminus; His tag (N); made in house; host or cells: Escherichia coli NiCo21
- measurement context: 100 µM compound; n.a. = not active; read-out: IDO1 % of Inhibition @ 100 µM

Can you look up the measured inhibition at 100 µM of `N#Cc1ccc(NC(=O)Cn2cnc3onc(-c4ccc(F)cc4)c3c2=O)cc1` for me?
11%

And `O=C(Cn1cnc2onc(-c3ccc(F)cc3)c2c1=O)Nc1ccc(F)cc1` ?
33%

And `COc1ccc(-c2noc3ncn(CC(=O)N4CCCc5ccccc54)c(=O)c23)cc1` ?
15%

And `O=C(Cn1cnc2onc(-c3ccc(F)cc3)c2c1=O)N1CCc2ccccc2C1` ?
17%

And `O=C(Cn1cnc2onc(-c3ccc(F)c(F)c3)c2c1=O)N1CCCc2ccccc21` ?
34%

And `O=C(Cn1cnc2onc(-c3ccc(F)cc3)c2c1=O)N1CCCCC1` ?
27%
